Molecular target: T1, CD47-His antigen (human, UniProt Q08722 19-139)
T1 construct: Human CD47 ECD with C-terminal 8xHIS tag, expressed in HEK293F; also called hCD47-His; human CD47-His
T1 sequence (Q08722 other isoform, or with tags, fused parts or gaps limits assumed): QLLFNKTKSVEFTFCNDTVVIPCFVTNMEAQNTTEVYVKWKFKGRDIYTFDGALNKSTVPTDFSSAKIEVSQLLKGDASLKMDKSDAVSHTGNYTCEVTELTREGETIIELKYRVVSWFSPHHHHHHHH
Experiment: competitive ELISA, CD47-His coated, competitor SIRPα-Fc-Bio 0.1 µg/mL
endpointLabel: IC50 (µg/mL)
Give the quantity in µg/mL, number only.

In the examples that follow, each entry is paired with its recorded IC50.
| binder | IC50, µg/mL |
| --- | --- |
| antibody 10 (antibody, human IgG1, kappa, V domains shown, IgG1 complete anti-CD47 antibody) VH: QVQLQESGPGLVKPSETLSLTCTVSGGSLDNYYWSWIRQPPGKGLEWIGRIYYNGNTNYNPSLKSRVTISVDTSKNQFSLRLRSVTAADTAVYYCARGGRILAGYWGQGTLVTVSS VL: DIQMTQSPSSVSASVGDRVTISCRANQAIGTWLAWYQQKPGKAPKLLIYAASTLQSGVPSRFSGSGSGTEFTLTISSLQAEDVAVYYCQQYYTTPLTFGGGTKLEIKR | 1.06 |
| antibody 24 (antibody, human IgG1, kappa, V domains shown, IgG1 complete anti-CD47 antibody) VH: QVQLQESGPGLVKPSETLSLTCTVSGGSLDNYYWSWIRQPPGKGLEWIGRIYGDSATNYNPSLKSRVTISVDTSKNQFSLRLRSVTAADTAVYYCARGGRIFSGYWGQGTLVTVSS VL: DIQMTQSPSSVSASVGDRVTISCRANQAIGTWLAWYQQKPGKAPKLLIYAASTLQSGVPSRFSGSGSGTEFTLTISSLQAEDVAVYYCQQYYTTPLTFGGGTKLEIKR | 1.41 |
| antibody 25 (antibody, human IgG1, kappa, V domains shown, IgG1 complete anti-CD47 antibody) VH: QVQLQESGPGLVKPSETLSLTCTVSGGSLDNYYWSWIRQPPGKGLEWIGYIYYSGNTNYNPSLKSRVTISVDTSKNQFSLRLRSVTAADTAVYYCARGGRIFGHWGQGTLVTVSS VL: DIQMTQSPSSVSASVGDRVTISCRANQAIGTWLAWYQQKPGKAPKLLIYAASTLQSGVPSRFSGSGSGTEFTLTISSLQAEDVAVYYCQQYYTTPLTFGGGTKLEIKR | 1.31 |
| antibody 3-3 (antibody, human IgG1, kappa, V domains shown, IgG1 complete anti-CD47 antibody) VH: QVQLQESGPGLVKPSETLSLTCTVSGGSLDNYYWSWIRQPPGKGLEWIGYIYYSGNTNYNPSLKSRVTISVDTSKNQFSLRLRSVTAADTAVYYCARGGRIFGGYWGQGTLVTVSS VL: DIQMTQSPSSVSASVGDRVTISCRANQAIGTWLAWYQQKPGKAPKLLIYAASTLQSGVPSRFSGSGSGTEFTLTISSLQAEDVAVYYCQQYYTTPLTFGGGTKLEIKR | 0.939 |
| antibody 3-6 (antibody, human IgG1, kappa, V domains shown, IgG1 complete anti-CD47 antibody) VH: QVQLQESGPGLVKPSETLSLTCTVSGGSLDNYYWSWIRQPPGKGLEWIGYIYYSGNTNYNPSLKSRVTISVDTSKNQFSLRLRSVTAADTAVYYCARGGRIFAGYWGQGTLVTVSS VL: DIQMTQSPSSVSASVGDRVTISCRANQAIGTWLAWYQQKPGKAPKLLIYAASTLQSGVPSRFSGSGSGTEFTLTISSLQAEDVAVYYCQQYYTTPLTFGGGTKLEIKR | 1.12 |

As a next step, examine the binder that follows.
Requested read-out: IC50. Entry: antibody 18 (antibody, human IgG1, kappa, V domains shown, IgG1 complete anti-CD47 antibody) VH: QVQLQESGPGLVKPSETLSLTCTVSGGSLDNYYWSWIRQPPGKGLEWIGYIYYSGNTNYNPSLKSRVTISVDTSKNQFSLRLRSVTAADTAVYYCARGRGIFGYWGQGTLVTVSS VL: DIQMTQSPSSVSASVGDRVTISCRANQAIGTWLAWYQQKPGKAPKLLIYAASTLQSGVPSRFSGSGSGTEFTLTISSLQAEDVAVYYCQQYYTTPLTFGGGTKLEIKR 1.23
